Target: T1, human carbonic anhydrase 12 (CAXII), biotinylated (Sino Biological Cat #10617-H08H) (human, UniProt O43570 25-301, biotinylated (sites not given))
T1 construct: Bought protein, biotinylated and captured with the Biotin CAPture Kit; also called hCAXII-bio; carbonic anhydrase XII
T1 sequence (O43570 25-301 limits assumed): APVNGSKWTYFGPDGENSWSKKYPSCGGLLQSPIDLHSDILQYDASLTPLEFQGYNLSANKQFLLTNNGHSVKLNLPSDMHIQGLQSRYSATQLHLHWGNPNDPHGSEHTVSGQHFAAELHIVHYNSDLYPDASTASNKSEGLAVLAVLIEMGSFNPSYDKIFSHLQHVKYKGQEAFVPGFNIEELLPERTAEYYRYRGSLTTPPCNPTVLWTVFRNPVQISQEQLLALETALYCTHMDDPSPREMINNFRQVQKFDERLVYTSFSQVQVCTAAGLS
Experiment: SPR (Biacore T200), biotinylated CAXII captured with Biotin CAPture Kit; limit of the category in which no binding is told
Starred links: 1 amine or outer side, 2 acyl side, 3 side chain; linkers in the order of their positions; H or OH if unused. Positions of bridges follow the written chain, without caps; N, C: chain ends. Non-standard residues stand in square brackets, D forms with d. Primed or numbered codes have the meaning given here. No end group written: not given here. *: point of attachment. Aph(SaPr) = 4-amino-L-phenylalanine, ring amine acylated by 3-sulfamoylpropanoic acid, NS(=O)(=O)CCC(=O)Nc1ccc(C[C@H](N[*:1])C(=O)[*:2])cc1; Phe(3-NHCO(CH2)3SO2NH2) = N[C@@H](Cc1cccc(NC(=O)CCCS(N)(=O)=O)c1)C(=O)O; APAc″ = 2-(4-(amino)piperidin-1-yl)acetic acid, NC1CCN(CC(=O)*)CC1; DOTA = O=C(O)CN1CCN(CC(=O)O)CCN(CC(=O)*)CCN(CC(=O)O)CC1; mXylylene = c1cc(C[*:1])cc(C[*:2])c1; Dap = NC[C@H](N)C(=O)O
// values below are reported pKD

Examples with answers:
Respond only with pKD recorded for QCE[dP]D[Phe(3-NHCO(CH2)3SO2NH2)]LTWSC-NH2 (linker 2-11 via mXylylene; not fully specified (N-terminus); printed as LuDOTA-PPAc-Gln-[Cys(3MeBn)-Glu-pro-Asp-Af3(Cpsu)-Leu-Thr-Trp-Ser-Cys]-NH2; also: lutetium complexed in DOTA, also called natLu-DPI-4452) [3BP-4555: LuDOTA-PPAc-Gln-[Cys(3MeBn)-Glu-pro-Asp-Af3(Cpsu)-Leu-Thr-Trp-Ser-Cys]-NH2]
< 6

Give pKD for {DOTA-APAc″}-VDCE[dP]DWLTW[Dap]C-NH2 (lactam 2-11; linker 3-12 via mXylylene, Bicyclic peptide with uncomplexed DOTA; also called DPI-4174) [3BP-4174: DOTA-APAc-Val-{Asp-[Cys(3MeBn)-Glu-pro-Asp-Trp-Leu-Thr-Trp-Dap}-Cys]-NH2]
< 6

Continuing:
Give the value of pKD reported for the following: {DOTA}-QCE[dP]D[Aph(SaPr)]LTWSC-NH2 (linker 2-11 via mXylylene; SMILES CC(C)C[C@@H]1NC(=O)[C@H](Cc2ccc(NC(=O)CCS(N)(=O)=O)cc2)NC(=O)[C@H](CC(=O)O)NC(=O)[C@H]2CCCN2C(=O)[C@H](CCC(=O)O)NC(=O)[C@@H](NC(=O)[C@H](CCC(N)=O)NC(=O)CN2CCN(CC(=O)O)CCN(CC(=O)O)CCN(CC(=O)O)CC2)CSCc2cccc(c2)CSC[C@@H](C(N)=O)NC(=O)[C@H](CO)NC(=O)[C@H](Cc2c[nH]c3ccccc23)NC(=O)[C@H]([C@@H](C)O)NC1=O, Cyclic peptide with uncomplexed DOTA; also called DPI-4501) [3BP-4501: DOTA-Gln-[Cys(3MeBn)-Glu-pro-Asp-Aph(SaPr)-Leu-Thr-Trp-Ser-Cys]-NH2]
< 6
